measurement target: Tyrosyl-tRNA synthetase, putative (Trypanosoma cruzi (strain CL Brener)) (UniProt Q4DSP6)
Sequence (Q4DSP6 as listed by the source): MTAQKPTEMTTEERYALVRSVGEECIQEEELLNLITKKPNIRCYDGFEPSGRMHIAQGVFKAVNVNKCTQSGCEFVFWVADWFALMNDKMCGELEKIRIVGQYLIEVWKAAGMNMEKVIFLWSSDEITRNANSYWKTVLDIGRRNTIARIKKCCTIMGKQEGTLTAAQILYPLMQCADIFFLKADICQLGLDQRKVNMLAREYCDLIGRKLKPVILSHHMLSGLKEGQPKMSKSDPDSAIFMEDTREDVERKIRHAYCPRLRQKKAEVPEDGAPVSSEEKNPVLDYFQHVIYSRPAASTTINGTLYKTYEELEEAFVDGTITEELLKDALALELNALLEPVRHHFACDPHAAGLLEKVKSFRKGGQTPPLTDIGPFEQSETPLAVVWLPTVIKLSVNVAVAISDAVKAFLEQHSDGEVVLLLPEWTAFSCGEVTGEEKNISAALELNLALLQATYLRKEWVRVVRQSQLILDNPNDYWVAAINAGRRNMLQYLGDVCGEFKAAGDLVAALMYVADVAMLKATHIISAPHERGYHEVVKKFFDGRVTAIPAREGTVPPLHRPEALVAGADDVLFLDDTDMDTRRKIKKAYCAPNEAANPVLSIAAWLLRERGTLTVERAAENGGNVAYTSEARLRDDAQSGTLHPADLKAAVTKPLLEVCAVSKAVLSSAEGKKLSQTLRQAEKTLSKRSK
method: Trypanosoma cruzi tyrosyl tRNA synthetase (TcYRS) SOP
Type: functional
Set-up: scale not given: direction of the effect not stated beside the values
condition details: 30 µM
measured attribute: Percent Effect (%)

CNC(=O)[C@@H]1C[C@H]2CN(Cc3nccs3)C[C@H]2N1C	22.5
COC(=O)c1cccn1C1CCN(CC(=O)NC2CCCCC2)CC1	21.2
CNC(=O)c1ccc(CN(C(=O)c2scnc2C)C2CC2)cc1	-6.02
Cn1c(CN2CCCC2c2noc(C3CC3)n2)cc(=O)n(C)c1=O (stereo not given)	0
Cc1cc(NC(=O)C(C)N2CCCN(c3nccs3)CC2)on1 (stereo not given)	8.43
COc1ccc(C[C@H]2CN(C(=O)c3ccncc3)CC[C@@H]2OC)cc1	-2.5
CCc1nc(C)ncc1C(=O)N1CCCC(n2nc(C)nc2C)C1 (stereo not given)	6.02
CCOc1ncccc1NC(=O)NC1CCCN(c2ncccn2)C1 (stereo not given)	30.6
O=C1CC2(CCN(S(=O)(=O)c3cccs3)C2)CN1c1ccccc1 (stereo not given)	-2.5
CCc1nccn1-c1cncc(C2CCCN2Cc2cccnc2)n1 (stereo not given)	20

* * *

measurement target: AMP-activated protein kinase, AMPK (Homo sapiens) (UniProt P54646+O43741+P54619+Q9UGJ0+Q9Y478+Q13131+Q9UGI9)
method: AMP-dependent Kinase enzyme assay. An in vitro enzyme assay that detects ADP turnover that is directly proportional to AMPK activity. This uses naive AMPK that is activated during the assay with MK-8722
Format: functional
Parameters: scale not given: direction of the effect not stated beside the values
condition details: 30 µM
measured attribute: Percent Effect (%)

CCCC1c2ccccc2CCN1CCS(C)(=O)=O (stereo unspecified)	-0.239
COc1cc2c(cc1CNCc1cccnc1OC)OC(C)C2 (stereo unspecified)	0.485
CN(Cc1noc(-c2ccccc2)n1)C(=O)CSc1nnc(N)s1	1.22
O=C(c1cccnc1)N1CCOC(Cc2ccccc2Cl)C1 (stereo unspecified)	11
CC(C)Cc1cc(CNC(=O)c2cccc3c2NCCC3)no1	1.24
c1ccc(C2CN(C3CC3)CC3(CCN(Cc4ncc[nH]4)CC3)C2)cc1 (stereo unspecified)	6.22
Clc1ccc2cccnc2c1CNC1CCc2ncnn2C1 (stereo unspecified)	3.85
C[S+]([O-])c1cccc(NC(=O)N[C@H](CCO)c2ccccc2)c1 (stereo partly specified)	-2.38
CCc1ccc(C(=O)N2CCCCC2CNS(C)(=O)=O)o1 (stereo unspecified)	-5.12
CCn1c(C2CCN(C(=O)c3ccc4sc(C)nc4c3)CC2)n[nH]c1=O	-0.0637
CS(=O)(=O)c1ccc(CN2C[C@H]3CC[C@@H]2CN(c2ncccn2)C3)cc1	9.64
CC(CN1CCOC1=O)NC(=O)c1cccc(C#N)c1 (stereo unspecified)	11.8
Cn1nccc1-c1cccc(CC2CCN(S(C)(=O)=O)C2)n1 (stereo unspecified)	8.3
COc1cc(Br)c(CNc2ccn(CCC(N)=O)n2)cc1OC	3.74
COc1ccc(CCN(C)C(=O)c2cc(C(C)=O)c[nH]2)cc1OC	-3.69
Cc1cc(C(=O)N2CC[C@](C)(O)[C@H](C)C2)c(C)n1C	-6.41
COc1ccc(S(=O)(=O)NC(=O)C(C)OC)c(OC)c1 (stereo unspecified)	-4.37
COCCC(=O)N1CCCC(CCC(=O)NCc2ccccc2F)C1 (stereo unspecified)	8.91
O=C(c1nnn(-c2ccc(F)cc2)n1)N(CCO)Cc1ccccc1	3.9
Cc1cc(C)c(C(=O)N(C)CCN(C)C(=O)OC(C)(C)C)[nH]1	-0.277
CN(C)C(=O)N1CCCC(C(=O)N(C)Cc2cnc(N)nc2)C1 (stereo unspecified)	-2.52
Cc1cnc(C(=O)N2CCN(c3ncc4c(n3)CCOC4)CC2)cn1	15.1
Cc1nc2c(c(NCC(=O)NC(C)C)n1)Cc1ccccc1OC2	5.96
CN(CC(=O)NC(C)(C)C)Cc1cccc2c1OCCO2	-9.42
COc1cc(-c2cccc3c2OC(CN)C3)cc(OC)c1OC (stereo unspecified)	-5.11
CCCn1cc(NC(=O)c2cccc(CN3CC[C@H](O)C3)c2)nn1	-5.04
CC(Oc1cccc(Cl)c1)C(=O)Nc1cnn(CC(=O)NC2CC2)c1 (stereo unspecified)	1.4
CC(C)[C@H]1CN(Cc2nccn2C)C[C@@H]1NC(=O)COCC(N)=O	9.37
CCn1cnnc1CNC(=O)N1CCOC(c2ccccc2Cl)C1 (stereo unspecified)	0.771
COC(=O)NCC(=O)N1CCCn2nc(CN3CC[C@H](F)C3)cc2C1	5.46
COc1ccc([C@@H]2CN(C(=O)CCCc3cn[nH]c3)C[C@H]2N(C)C)cc1	2.77

* * *

measurement target: Sialic acid-binding Ig-like lectin 9 (Homo sapiens)
method: Hs-Siglec9 ALPHAscreen SOP 20170721
Set-up: scale not given: direction of the effect not stated beside the values
condition details: 10 µM
Catalogue of compounds with associated Percent Effect
measured attribute: Percent Effect (%)

O=C(Nc1cccc2c1CCCC2)C1CCCN1c1nccs1 (stereo not drawn)	1.32
CCc1nnc(CN2CCCC(c3cc(C(F)(F)F)[nH]n3)C2)o1 (stereo not drawn)	-0.304
CS(=O)(=O)N1CCC[C@]2(C[C@@H](Oc3ncccc3F)CO2)C1	-6.01

* * *

measurement target: Arginase-2, mitochondrial (Homo sapiens) (UniProt P78540)
Sequence (whole entry): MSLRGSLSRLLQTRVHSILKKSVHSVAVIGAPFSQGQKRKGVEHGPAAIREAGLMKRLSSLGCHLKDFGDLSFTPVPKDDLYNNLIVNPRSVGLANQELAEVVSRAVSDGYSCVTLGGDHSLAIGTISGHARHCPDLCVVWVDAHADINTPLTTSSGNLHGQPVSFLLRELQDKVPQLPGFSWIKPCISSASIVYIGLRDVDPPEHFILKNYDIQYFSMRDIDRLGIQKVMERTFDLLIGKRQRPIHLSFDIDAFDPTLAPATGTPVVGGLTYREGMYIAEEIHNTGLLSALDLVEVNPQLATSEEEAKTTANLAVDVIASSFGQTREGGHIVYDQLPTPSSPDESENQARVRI
method: in vitro enzyme assay to detect the production of urea directly proportional to the activity of Arginase II; further: in the data most compounds retested in dose-response had high values
Format: functional
Set-up: scale not given: direction of the effect not stated beside the values
condition details: 33.3 µM
Catalogue of compounds with associated Percent Effect
measured attribute: Percent Effect (%)

CCCn1[nH]cc/c1=N\C(=O)CN1CCc2cnc(CC)nc2C1	9.76
Cc1noc(C)c1CN(C)C(=O)NC1CCN(c2ncccn2)CC1	-0.82
NC(=O)NC(=O)CCN1CCCN(c2nccs2)CC1	3.1
O=C(NC[C@]1(O)CN(Cc2ccccc2F)C[C@H]1O)c1ccccn1	1.33
CCc1nc(C2CCCN2CCn2cncn2)no1 (stereo not drawn)	3.07
Cc1ccc(NC(=O)C(C)N2CCCN(c3nccs3)CC2)c(C)c1 (stereo not drawn)	4.51
CC(C)c1cc(N2CCC(N)CC2)n2nccc2n1	-3.15
Cn1cc(NC(=O)N2CCC(CN3CCCC3)CC2)ccc1=O	11.1
O=C1CC(c2ccco2)c2sc(C(=O)O)c(-c3ccccc3)c2N1 (stereo not drawn)	-3.85
Cc1ccc(C(=O)N2CCCC3(CCCC(=O)N3C)C2)cc1F (stereo not drawn)	4.11
CNc1snc(C)c1C(=O)N1CCCC(n2ccnc2C(C)C)C1 (stereo not drawn)	0.444
CC(C)N1CCCC2(CCN(C(=O)CCCn3cncn3)C2)C1=O (stereo not drawn)	-1.75
CCCc1n[nH]cc1C(=O)N1CCC(c2nccn2CCOC)CC1	20.6
CCc1nc(C2CCCN2C(=O)c2ccoc2C)no1 (stereo not drawn)	5.74
Cc1ccc(-c2cc(CN3CCOC(Cn4cncn4)C3)on2)cc1 (stereo not drawn)	-1.43
COCC(C)NC(=O)c1cc(Br)c2c(c1)OCCO2 (stereo not drawn)	8.43
Cc1cnn(CC2CCCN2CC(=O)Nc2cc(C(C)(C)C)no2)c1 (stereo not drawn)	-0.615
CCCC(C)C(=O)N1CCC(n2cccc2C(=O)OC)CC1 (stereo not drawn)	1.43
CCc1ccsc1C(=O)N1CCN(C(=O)CC(F)(F)F)CC1	1.02
CCN1CCC2(C=C(C(=O)NC3CC3)c3ccccc32)CC1	0
CNC(=O)c1ccc(C2CN(C(=O)COC)CCO2)nc1 (stereo not drawn)	3.54
Cn1nc2c(cc1=O)CN(Cc1nc(C(C)(C)C)no1)CC2	4.88
COCc1nc(C(=O)NS(=O)(=O)c2ccc(C)s2)cs1	6.56
CCc1ncnc2c1CCN(Cc1ccc(OC)cc1)CC2	-2.02
Cc1cncc(C2CCCN(C(=O)c3cccn3C)C2)n1 (stereo not drawn)	1.33
Cc1occc1CNC(=O)N(CCCO)C1CCc2ccccc21 (stereo not drawn)	-1.77
Cc1nc(CNCC2CN(C)CCO2)cs1 (stereo not drawn)	-3.89
CN(C)CC1CN(Cc2coc(-c3cccs3)n2)CCO1 (stereo not drawn)	2.22
Fc1ccc(-c2nnc(CN3CCn4c(nnc4C4CC4)C3)o2)cc1	1.77
CCc1nc(C)c(C(=O)NCCN2CCC(C)CC2)s1	-2.25
CC(C)n1ccnc1CN1CCCN(C(=O)c2cc(Cl)c[nH]2)CC1	11.5
O=C(CN1CCCS1(=O)=O)NCCOc1ccc2c(c1)CCC2	5.74
O=c1cc(Cn2cncn2)nc2n1CCCN(CC1CC1)C2	-1.22
